target: Human CaV2.2 channels (Homo sapiens); construct: expressed in transfected cells; Kir2.3 also stably co-expressed; assay: Fluorescence assay for CaV2.2 channels using potassium depolarization to induce channel opening (FLIPR, Fluo 4); type: cell-based; conditions: 3 μM test compound, 30 mM KCl assay buffer (inactivated channel state), HEK293 cells
Sequence (Q00975 whole entry): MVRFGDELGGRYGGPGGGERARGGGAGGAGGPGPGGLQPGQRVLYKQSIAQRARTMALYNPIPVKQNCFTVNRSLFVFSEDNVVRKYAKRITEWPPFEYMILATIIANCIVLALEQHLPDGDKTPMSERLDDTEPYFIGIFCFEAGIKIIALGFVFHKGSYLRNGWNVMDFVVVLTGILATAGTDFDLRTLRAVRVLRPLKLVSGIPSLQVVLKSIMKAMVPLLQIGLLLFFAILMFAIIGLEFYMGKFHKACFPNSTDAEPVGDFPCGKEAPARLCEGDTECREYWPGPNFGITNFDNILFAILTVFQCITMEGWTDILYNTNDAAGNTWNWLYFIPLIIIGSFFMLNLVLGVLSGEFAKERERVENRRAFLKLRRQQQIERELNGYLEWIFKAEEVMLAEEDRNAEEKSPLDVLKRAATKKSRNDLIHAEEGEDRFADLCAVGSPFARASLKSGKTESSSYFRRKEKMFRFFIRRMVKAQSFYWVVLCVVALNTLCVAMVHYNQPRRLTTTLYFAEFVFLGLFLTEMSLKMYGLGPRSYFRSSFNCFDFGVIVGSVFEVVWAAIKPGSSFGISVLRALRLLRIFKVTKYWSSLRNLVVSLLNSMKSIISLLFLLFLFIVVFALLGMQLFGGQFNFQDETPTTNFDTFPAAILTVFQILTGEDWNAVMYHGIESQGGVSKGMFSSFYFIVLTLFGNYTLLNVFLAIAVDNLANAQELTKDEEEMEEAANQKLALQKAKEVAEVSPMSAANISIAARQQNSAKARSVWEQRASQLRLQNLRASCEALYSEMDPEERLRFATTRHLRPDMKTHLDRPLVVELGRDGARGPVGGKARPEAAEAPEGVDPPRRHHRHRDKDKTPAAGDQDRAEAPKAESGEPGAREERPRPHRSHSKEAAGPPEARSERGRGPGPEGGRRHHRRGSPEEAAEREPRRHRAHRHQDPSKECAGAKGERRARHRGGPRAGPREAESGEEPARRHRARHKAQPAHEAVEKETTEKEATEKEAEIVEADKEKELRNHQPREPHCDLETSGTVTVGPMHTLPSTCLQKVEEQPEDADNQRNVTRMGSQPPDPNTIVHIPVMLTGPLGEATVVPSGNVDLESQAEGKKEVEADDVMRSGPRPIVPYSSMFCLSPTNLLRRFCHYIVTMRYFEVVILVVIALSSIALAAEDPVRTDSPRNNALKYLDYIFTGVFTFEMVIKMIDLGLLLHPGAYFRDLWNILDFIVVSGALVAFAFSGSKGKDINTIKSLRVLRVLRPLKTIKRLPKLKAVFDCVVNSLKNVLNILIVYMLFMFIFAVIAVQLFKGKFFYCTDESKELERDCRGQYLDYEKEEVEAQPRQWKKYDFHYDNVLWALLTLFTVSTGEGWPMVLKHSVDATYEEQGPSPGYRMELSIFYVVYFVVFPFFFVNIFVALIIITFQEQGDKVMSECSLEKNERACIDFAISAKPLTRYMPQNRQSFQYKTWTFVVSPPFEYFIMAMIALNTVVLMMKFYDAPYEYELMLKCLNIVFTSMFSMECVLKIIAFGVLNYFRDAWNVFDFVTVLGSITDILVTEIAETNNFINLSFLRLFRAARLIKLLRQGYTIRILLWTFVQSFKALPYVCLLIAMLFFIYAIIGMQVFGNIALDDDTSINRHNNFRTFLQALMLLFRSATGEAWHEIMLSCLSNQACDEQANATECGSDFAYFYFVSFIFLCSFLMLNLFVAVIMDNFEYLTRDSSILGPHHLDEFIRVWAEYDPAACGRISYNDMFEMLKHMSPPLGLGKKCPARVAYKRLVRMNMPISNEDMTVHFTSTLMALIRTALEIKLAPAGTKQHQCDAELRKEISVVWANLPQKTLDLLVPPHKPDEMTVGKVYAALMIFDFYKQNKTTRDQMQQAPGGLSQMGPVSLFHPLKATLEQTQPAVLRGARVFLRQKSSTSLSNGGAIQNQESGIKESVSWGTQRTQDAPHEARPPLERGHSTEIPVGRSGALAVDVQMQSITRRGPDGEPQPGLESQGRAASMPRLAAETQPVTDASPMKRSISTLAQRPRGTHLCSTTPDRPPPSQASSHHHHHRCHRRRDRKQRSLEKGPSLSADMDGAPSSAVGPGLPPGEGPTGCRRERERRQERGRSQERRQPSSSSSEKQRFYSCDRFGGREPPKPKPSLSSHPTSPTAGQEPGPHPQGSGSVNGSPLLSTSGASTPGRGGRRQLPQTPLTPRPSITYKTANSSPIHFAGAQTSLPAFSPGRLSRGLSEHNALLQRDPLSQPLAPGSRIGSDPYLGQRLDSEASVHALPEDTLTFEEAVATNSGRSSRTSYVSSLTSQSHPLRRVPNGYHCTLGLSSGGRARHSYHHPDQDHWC
outcome.measure: Activity Category: %-Inhib (CaV2.2) @3 μM @30 mM KCl

[[record]]
compound = "CC1(S(=O)(=O)c2cccc(C(F)(F)F)c2)CCOC(c2ccccc2S(C)(=O)=O)C1 (stereo not shown) [SC-222]"
result = "A (%-Inhibition >95%)"

[[record]]
compound = "CC1(S(=O)(=O)c2cccc(C(F)(F)F)n2)CCOC(c2ccc(Cl)cc2)C1 (stereo not shown) [SC-105]"
result = "A (%-Inhibition >95%)"

[[record]]
compound = "CC1(S(=O)(=O)c2cccc(C(F)(F)F)c2)CCOC(c2ccc(S(C)(=O)=O)c(S(C)(=O)=O)c2)C1 (single isomer, unassigned)"
result = "A (%-Inhibition >95%)"

